# Read-out: E-selectin (Homo sapiens) (UniProt P16581)
# Sequence (P16581 whole entry, looked up): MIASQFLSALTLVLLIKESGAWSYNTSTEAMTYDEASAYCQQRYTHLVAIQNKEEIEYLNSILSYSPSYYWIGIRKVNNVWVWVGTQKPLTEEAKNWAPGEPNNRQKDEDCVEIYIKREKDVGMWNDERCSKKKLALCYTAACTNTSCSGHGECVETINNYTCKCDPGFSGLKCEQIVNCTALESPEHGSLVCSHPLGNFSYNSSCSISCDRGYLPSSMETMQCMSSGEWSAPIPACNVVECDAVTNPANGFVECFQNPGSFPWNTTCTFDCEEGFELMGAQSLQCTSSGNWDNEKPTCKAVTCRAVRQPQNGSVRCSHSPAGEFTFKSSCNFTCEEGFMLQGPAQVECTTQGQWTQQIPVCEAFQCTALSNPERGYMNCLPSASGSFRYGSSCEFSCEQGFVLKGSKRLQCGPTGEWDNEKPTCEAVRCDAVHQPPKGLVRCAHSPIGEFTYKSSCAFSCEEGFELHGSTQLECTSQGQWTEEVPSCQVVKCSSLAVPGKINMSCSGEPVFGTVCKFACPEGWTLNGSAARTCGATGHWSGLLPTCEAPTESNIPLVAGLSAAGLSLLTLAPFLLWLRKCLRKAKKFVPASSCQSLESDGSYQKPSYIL
# assay comment: BSK_SAg_Eselectin: BioMAP Diversity Plus: SAg Assay for Eselectin Biomarker Activity (AID 2283091)
# study conditions: primary human HUVEC with PBMC; actives raise or lower the signal
Calls of active or inactive are those of the source. Rule for the calls: active = hit-call score of the fitted dose curve at least 0.9, where 1 is the maximum; inactive = score below 0.9.
I would appreciate it if you answered using one of these outcomes: active, inactive

Reference set, count: 3
COC(=O)c1ccc(CNS(C)(=O)=O)cc1S(=O)(=O)NC(=O)Nc1nc(OC)cc(OC)n1 : inactive
CSC(=O)c1cccc2nnsc12 : inactive
C[C@]12C[C@H](O)[C@H]3[C@@H](CCC4=CC(=O)CC[C@@]43C)[C@@H]1CC[C@@H]2C(=O)CO : inactive

INPUT: Please state the recorded outcome for this compound: Cc1nn(C)c(Oc2ccccc2)c1C=NOCc1ccc(C(=O)OC(C)(C)C)cc1
OUTPUT: active

INPUT: What do you get for CCOC(=O)NCCOc1ccc(Oc2ccccc2)cc1 ?
OUTPUT: active

INPUT: Check O=C(O)c1ccccc1 too.
OUTPUT: inactive
